Assay: physchem
Conditions: pH 9, aqueous buffer, kinetic from dmso stock, Solubility Range (maximum solubility)
assay metric: solubility at 24 h

CCNC(=O)Nc1nc2cc(-c3cnc(N4CCC(C)(C(=O)O)CC4)nc3)cc(C#Cc3ccncn3)c2s1 [Compound 155] | > 800 µg/mL

Consider the compound CCNC(=O)Nc1nc2cc(-c3cnc(N4CCC(C)(C(=O)O)CC4)nc3)cc(Br)c2s1 [Compound 215] and give its recorded solubility at 24 h.
> 800 µg/mL

---

Assay: physchem
Settings: pH 9, aqueous buffer, kinetic from dmso stock, Max Solubility
assay metric: solubility at 24 h

CCNC(=O)Nc1nc2cc(-c3ccnc(N4CCC(C)(C(=O)O)CC4)c3)cc(-c3ccccn3)c2s1 [Compound 182] | ≥ 800 µg/mL

Consider the compound CCNC(=O)Nc1nc2cc(-c3cnc(N4CCC(C)(C(=O)O)CC4)nc3)cc(C#Cc3cccc(OC)n3)c2s1 [Compound 152] and give its recorded solubility at 24 h.
≥ 800 µg/mL

Consider the compound CCNC(=O)Nc1nc2cc(-c3cnc(N4CCC(C)(C(=O)O)CC4)nc3)cc(-c3nccc(OC)c3F)c2s1 [Compound 55] and give its recorded solubility at 24 h.
≥ 800 µg/mL

---

Items are presented alongside their recorded solubility at 24 h.
Assay: physchem
Conditions: pH 7.4, aqueous buffer, kinetic from dmso stock, Solubility Range

CCNC(=O)Nc1nc2cc(-c3cnc(N4CCC(F)(C(=O)O)CC4)nc3)cc(-c3ccccn3)c2s1 | 400 to 800 µg/mL
CCNC(=O)Nc1nc2cc(-c3cnc(N4CCC(C)(C(=O)O)CC4)nc3)cc(/C(C)=N/OCCOC)c2s1 | > 800 µg/mL
CCNC(=O)Nc1nc2cc(-c3cnc(N4CCC(C)(C(=O)O)CC4)nc3)cc(-n3ccnc3)c2s1 | 12.5 to 400 µg/mL
CCNC(=O)Nc1nc2cc(-c3cnc(N4CCC(CC)(C(=O)O)CC4)nc3)cc(-c3ncccc3C#N)c2s1 | 12.5 to 400 µg/mL

Consider the compound `CCNC(=O)Nc1nc2cc(-c3cnc(N4CCC(C)(C(=O)O)CC4)nc3)cc(C3CCN(C(C)=O)CC3)c2s1` and give its recorded solubility at 24 h.
> 800 µg/mL

Consider the compound `CCNC(=O)Nc1nc2cc(-c3cnc(N4CCC(N)(C(=O)O)CC4)nc3)cc(-c3ccccn3)c2s1` and give its recorded solubility at 24 h.
12.5 to 400 µg/mL

Consider the compound CCNC(=O)Nc1nc2cc(-c3cnc(N4CCC(C(=O)OC)(C(F)(F)F)C4)nc3)cc(-c3ccccn3)c2s1 (stereo not drawn) and give its recorded solubility at 24 h.
< 12.5 µg/mL

Consider the compound `CCNC(=O)Nc1nc2cc(-c3cnc(N4CCC(C)(C(=O)O)CC4)nc3)cc(-c3ccn(C)c(=O)c3)c2s1` and give its recorded solubility at 24 h.
> 800 µg/mL

Consider the compound `CCNC(=O)Nc1nc2cc(-c3cnc(N4CCC(C)(C(=O)O)CC4)nc3)cc(O)c2s1` and give its recorded solubility at 24 h.
> 800 µg/mL

Consider the compound `CCNC(=O)Nc1nc2cc(-c3cnc(N4CCC(CC)(C(=O)O)CC4)nc3)cc(C3=NOCC3)c2s1` and give its recorded solubility at 24 h.
> 800 µg/mL

Consider the compound `CCNC(=O)Nc1nc2cc(-c3cnc(N4CCC(C)(C(=O)O)CC4)nc3)cc(-c3ncc(OC)cn3)c2s1` and give its recorded solubility at 24 h.
> 800 µg/mL

Consider the compound `CCNC(=O)Nc1nc2cc(-c3cnc(N4CCC(C)(C(=O)O)CC4)nc3)cc(-c3noc(C)n3)c2s1` and give its recorded solubility at 24 h.
400 to 800 µg/mL

Consider the compound `CCNC(=O)Nc1nc2cc(-c3cnc(N4CCC(C)(C(=O)O)CC4)nc3)cc(-c3cnc(CC)s3)c2s1` and give its recorded solubility at 24 h.
12.5 to 400 µg/mL
